test system: WT (wild-type HIV virus; recombinant NL4-3 virus); test: microbe, parasite or virus in culture; assay type: cell-based, HIV-1; settings: Human immunodeficiency virus 1, NL43, MT2, read-out: WT (EC50, uM), Table 1 regular screen, MT-2 cells, luciferase readout
parameter measured: EC50

>>> reported_result("C=C(C)[C@@H]1CC[C@]2(NC(CN)C(F)(F)F)CC[C@]3(C)[C@H](CC[C@@H]4[C@@]5(C)CC=C(C6=CC[C@](CF)(C(=O)O)CC6)C(C)(C)[C@@H]5CC[C@]43C)[C@@H]12 (single isomer, unassigned)")
"0.0473 µM"
>>> reported_result("C=C(C)[C@@H]1CC[C@]2(NCCC(C)C)CC[C@]3(C)[C@H](CC[C@@H]4[C@@]5(C)CC=C(C6=CC[C@](CF)(C(=O)O)CC6)C(C)(C)[C@@H]5CC[C@]43C)[C@@H]12")
"0.116 µM"
>>> reported_result("C=C(C)[C@@H]1CC[C@]2(NCCS(=O)(=O)CCN3CCS(=O)(=O)CC3)CC[C@]3(C)[C@H](CC[C@@H]4[C@@]5(C)CC=C(C6=CC[C@](CF)(C(=O)O)CC6)C(C)(C)[C@@H]5CC[C@]43C)[C@@H]12")
"0.00335 µM"
>>> reported_result("C=C(C)[C@@H]1CC[C@]2(NCCN3CCSCC3C(=O)O)CC[C@]3(C)[C@H](CC[C@@H]4[C@@]5(C)CC=C(C6=CC[C@@](CF)(C(=O)O)CC6)C(C)(C)[C@@H]5CC[C@]43C)[C@@H]12 (stereo partly shown)")
"0.0243 µM"

###

tested on: WT (wild-type HIV virus; recombinant NL4-3 virus); assay: microbe, parasite or virus in culture; type: cell-based, HIV-1; conditions: Human immunodeficiency virus 1, NL43, MT2, read-out: WT (EC50, uM), Table 1 regular screen, MT-2 cells, luciferase readout
EC50 listing for selected compounds.
parameter measured: EC50 (µM)

>>> reported_result("C=C(C)[C@@H]1CC[C@]2(NCCN3CCC(C(=O)O)(C(=O)OCC)CC3)CC[C@]3(C)[C@H](CC[C@@H]4[C@@]5(C)CC=C(C6=CC[C@@](CF)(C(=O)O)CC6)C(C)(C)[C@@H]5CC[C@]43C)[C@@H]12 [Example 17]")
0.0194
>>> reported_result("C=C(C)[C@@H]1CC[C@]2(NCC[C@]3(O)CC[C@@H](S(C)(=O)=O)CC3)CC[C@]3(C)[C@H](CC[C@@H]4[C@@]5(C)CC=C(C6=CC[C@](CF)(C(=O)O)CC6)C(C)(C)[C@@H]5CC[C@]43C)[C@@H]12 [Example 2-19]")
0.00135

###

test system: HIV-1 92UG029 (clade A virus); assay: HIV cell culture assay, 92UG029 Gag/Pr recombinant virus in MT-2 cells; type: cell-based; conditions: Human immunodeficiency virus 1, MT2, read-out: EC50 92UG029 (μM)
parameter measured: EC50 (µM)

>>> reported_result("C=C(C)[C@@H]1CC[C@]2(NCCN3CCS(=O)(=O)CC3)CC[C@]3(C)[C@H](CC[C@@H]4[C@@]5(C)CC=C(C6=CC[C@](CF)(C(=O)O)CC6)C(C)(C)[C@@H]5CC[C@]43C)[C@@H]12")
0.02
>>> reported_result("C=C(C)[C@@H]1CC[C@]2(NCCN3CCS(=O)(=O)CC3)CC[C@]3(C)[C@H](CC[C@@H]4[C@@]5(C)CC=C(C6=CCC(CF)(C(=O)O)CC6)C(C)(C)[C@@H]5CC[C@]43C)[C@@H]12 (mixture of isomers)")
0.005
>>> reported_result("C=C(C)[C@@H]1CC[C@]2(NCCN3CCS(=O)(=O)CC3)CC[C@]3(C)[C@H](CC[C@@H]4[C@@]5(C)CC=C(C6=CC[C@@](CF)(C(=O)O)CC6)C(C)(C)[C@@H]5CC[C@]43C)[C@@H]12")
0.001
>>> reported_result("C=C(C)[C@@H]1CC[C@]2(NCCN3CCC(S(C)(=O)=O)CC3)CC[C@]3(C)[C@H](CC[C@@H]4[C@@]5(C)CC=C(C6=CCC(F)(C(=O)O)CC6)C(C)(C)[C@@H]5CC[C@]43C)[C@@H]12 (some centres unmarked) [Compound A, reference compound]")
0.61
>>> reported_result("C=C(C)[C@@H]1CC[C@]2(NCCN3CCS(=O)(=O)CC3)CC[C@]3(C)[C@H](CC[C@@H]4[C@@]5(C)CC=C(C6=CCC(C)(C(=O)O)CC6)C(C)(C)[C@@H]5CC[C@]43C)[C@@H]12 (some centres unmarked) [Compound B, reference compound]")
0.03
